# assay.method.text: Components of the Cytosolic LPS Sensing Pathway: Gene Identification via Genome-wide siRNA Screen;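 note: robust z of the log signal after scaling to non-targeting control siRNA wells of the plate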
# assay.conditions: RAW264.7 macrophages, IL-1a HTRF, actives lie on both sides, screened at 100 nM (by protocol), cells primed 5 h with Pam3CSK4 first
The campaign covered roughly 53,000 sequences. About 3,700 (7%) were called active. Many of the other results were omitted from the sample, so actives are more common in it than they were.
The following sequences are listed with their measured z-score values.
readout: z-score

[[record]]
sequence_record = "GGAAGUAGCCCAGAAGUGUTT against Rad51d"
endpoint_result = -0.337

[[record]]
sequence_record = "GGUUGUUCAUGAGCCGAACTT against Rpl18"
endpoint_result = -0.0641

[[record]]
sequence_record = "CCAAAUUGUCUCUUCUAACTT against Dnah1"
endpoint_result = 0.0269

[[record]]
sequence_record = "GGCUUAUGACGAAUUAGUCTT against Ubn2"
endpoint_result = 0.274

[[record]]
sequence_record = "GGACAGCAGUUUUUACUAGTT against Mllt10"
endpoint_result = 0.907

[[record]]
sequence_record = "GGGUGUGUUGGAUACCUAUTT against Adig"
endpoint_result = 2.03

[[record]]
sequence_record = "GGACAUAUAGCUGAUUUCUTT against Ctdsp2"
endpoint_result = 1.97

[[record]]
sequence_record = "GCUCUUUCUAGCUUAUGAUTT against Chmp1b"
endpoint_result = -0.464

[[record]]
sequence_record = "GUCACAGAAAGCUUAGUCCTT against Olfr427"
endpoint_result = -2.93

[[record]]
sequence_record = "GGGUCCUAAGACUAUUGAUTT against Eif4g1"
endpoint_result = 0.274

[[record]]
sequence_record = "GGUGUGUGCAGGACUAAAUTT against Cacng3"
endpoint_result = 0.955

[[record]]
sequence_record = "CCACUUUCAACUUUCCGCATT against Fgd5"
endpoint_result = -1.94


###

# assay.method.text: Components of the Cytosolic LPS Sensing Pathway: Gene Identification via Genome-wide siRNA Screen;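 note: robust z of the log signal after scaling to non-targeting control siRNA wells of the plate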
# assay.conditions: RAW264.7 macrophages, IL-1a HTRF, actives lie on both sides, screened at 100 nM (by protocol), cells primed 5 h with Pam3CSK4 first
The campaign covered roughly 53,000 sequences. About 3,700 (7%) were called active.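 Rule for the calls: active = gene knockdowns whose robust z-score for IL-1 alpha signal is at least 2 or at most -2, so actives lie on both sides; inactive = the rest.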 The full list was thinned out, with actives kept by preference.
Outcome codes: yes (1) = active, no (0) = inactive

[[record]]
sequence_record = "GGAAGAACCCUGCUACAUCTT against Mrpl37"
discrete_label = "no (0)"

[[record]]
sequence_record = "GGGCAAGGUGUAUUGUCAATT against D830050J10Rik"
discrete_label = "no (0)"

[[record]]
sequence_record = "CGCAUGAUAACUAGAGAAUTT against Slitrk3"
discrete_label = "no (0)"

[[record]]
sequence_record = "GGACUAGUGUGAAAAAGGATT against Nsd1"
discrete_label = "yes (1)"

[[record]]
sequence_record = "GGAGACUUCAGCACCUUUGTT against C4a"
discrete_label = "no (0)"

[[record]]
sequence_record = "GGGCUGUAUUUCUUUACCCTT against Mrgprb2"
discrete_label = "no (0)"

[[record]]
sequence_record = "GGAGUCAAAAAAAAUGCAATT against Ribc1"
discrete_label = "no (0)"

[[record]]
sequence_record = "GGUUGACGAAAUGACUAUATT against Adh4"
discrete_label = "no (0)"

[[record]]
sequence_record = "GGUUUUACCGAUGAUGCAUTT against Pcdhb20"
discrete_label = "no (0)"

[[record]]
sequence_record = "GCUAUUAAGUUUACCCUAGTT against A730089K16Rik"
discrete_label = "no (0)"

[[record]]
sequence_record = "GGUGAAUCUAUUUACCUGCTT against Fam71d"
discrete_label = "no (0)"

[[record]]
sequence_record = "CGACCAUUCCUUUGAGUUATT against Atl1"
discrete_label = "yes (1)"

[[record]]
sequence_record = "GGAAACAAAUGAGUGCCUGTT against Bloc1s5"
discrete_label = "yes (1)"

[[record]]
sequence_record = "CCAAAGGUUACCAGGAAGCTT against Pcsk4"
discrete_label = "no (0)"

[[record]]
sequence_record = "GGCAUUGUAACCCUUGUAATT against Zscan26"
discrete_label = "no (0)"

[[record]]
sequence_record = "GGGUUCCUCAGAGACUGAGTT against Esrra"
discrete_label = "no (0)"

[[record]]
sequence_record = "GGGAAAGAAUUGGAUUGAATT against N4bp2l1"
discrete_label = "yes (1)"

[[record]]
sequence_record = "GCCUUAGGUUGAUAGGAGGTT against Tas2r110"
discrete_label = "no (0)"

[[record]]
sequence_record = "GGAAGCUGCACGGCAACUUTT against Btn2a2"
discrete_label = "no (0)"

[[record]]
sequence_record = "GCAUUAAAGUAGAAGGUCUTT against Snx31"
discrete_label = "no (0)"

[[record]]
sequence_record = "GGAGAACUUCCUAUACUAUTT against Apobec2"
discrete_label = "no (0)"

[[record]]
sequence_record = "GGAGGUAGGAGCCAUAAGATT against Pter"
discrete_label = "no (0)"

[[record]]
sequence_record = "GGGCCAAGAUACCAAGAGUTT against Spout1"
discrete_label = "yes (1)"

[[record]]
sequence_record = "GGGAGCUAAGAAGAUUCAUTT against Mul1"
discrete_label = "no (0)"

[[record]]
sequence_record = "GCAUGUUCGCACGUGUCAATT against 5330439B14Rik"
discrete_label = "no (0)"

[[record]]
sequence_record = "CCUAGAGUCUCAGGACUGUTT against Actrt3"
discrete_label = "no (0)"

[[record]]
sequence_record = "GCUCACUAACUUUUACAAGTT against Fam166c"
discrete_label = "no (0)"

[[record]]
sequence_record = "GGCUUUGGUCAAGGAGAAGTT against Pias4"
discrete_label = "no (0)"

[[record]]
sequence_record = "GGAAACUUGUUGAAGAGAUTT against Ptprz1"
discrete_label = "yes (1)"

[[record]]
sequence_record = "GGCUAGAAUGCACAUUUUATT against Tmem65"
discrete_label = "no (0)"

[[record]]
sequence_record = "GUUUGUCUAGCUUCAGAUGTT against Rims4"
discrete_label = "no (0)"

[[record]]
sequence_record = "GGAAGAGUGUCUAAAUGUATT against Cbwd1"
discrete_label = "no (0)"

[[record]]
sequence_record = "GGUCACGAUGUAGCACGCUTT against Mtg1"
discrete_label = "no (0)"

[[record]]
sequence_record = "CCUGGAAUGUAUUUGUUAUTT against Nkain2"
discrete_label = "no (0)"

[[record]]
sequence_record = "GGAAGAAGCUGAGGAAAGCTT against Spata1"
discrete_label = "no (0)"

[[record]]
sequence_record = "GGGCAUUGGCAAGAAAAAGTT against Ahdc1"
discrete_label = "no (0)"

[[record]]
sequence_record = "CCAUCUGUAACGGAUCUGATT against Prorsd1"
discrete_label = "no (0)"

[[record]]
sequence_record = "CGAUAAAAGAGAGAUGAUUTT against Rap1gds1"
discrete_label = "no (0)"

[[record]]
sequence_record = "GGCGACAUGAAAGAAGGCATT against Klk6"
discrete_label = "yes (1)"

[[record]]
sequence_record = "GCACACCAGAUCUACUUCUTT against Cyp2b9"
discrete_label = "no (0)"

[[record]]
sequence_record = "GGAUGUGUCGGGAAAUGCUTT against Frmd5"
discrete_label = "no (0)"

[[record]]
sequence_record = "GGAGACUCCUUACGGCAAATT against Bnip1"
discrete_label = "no (0)"

[[record]]
sequence_record = "CGCACAUGUAGUUAAUAAATT against Iqcg"
discrete_label = "no (0)"

[[record]]
sequence_record = "GGAUGGACAUCCAAGCAGGTT against Fabp9"
discrete_label = "no (0)"

[[record]]
sequence_record = "GAACUGAAGAAGCAGAUUGTT against Isg15"
discrete_label = "no (0)"

[[record]]
sequence_record = "GGCUACAAGUUGGUAAUCUTT against Pnkp"
discrete_label = "yes (1)"

[[record]]
sequence_record = "CGCAGCGACCAGCUUUCAATT against Srebf2"
discrete_label = "no (0)"

[[record]]
sequence_record = "GCUACCCAUGAGCUUUCGATT against S100a3"
discrete_label = "no (0)"

[[record]]
sequence_record = "GCUGCUCAAUCGGAAAUACTT against Clk1"
discrete_label = "yes (1)"

[[record]]
sequence_record = "GGACUCUUCAGCUUCCAGUTT against Uts2"
discrete_label = "no (0)"


###

# assay.method.text: Components of the Cytosolic LPS Sensing Pathway: Gene Identification via Genome-wide siRNA Screen;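 note: robust z of the log signal after scaling to non-targeting control siRNA wells of the plate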
# assay.conditions: RAW264.7 macrophages, IL-1a HTRF, actives lie on both sides, screened at 100 nM (by protocol), cells primed 5 h with Pam3CSK4 first
About 3,700 (7%) of roughly 53,000 sequences were called active. The entries come from a sample that favours actives as a whole.
Response field label takes fulfilled when z-score is strictly below 1 and not fulfilled in all other cases.

[[record]]
sequence_record = "GGAAAACACCUACCUGUGGTT against Slc25a3"
discrete_label = "fulfilled"

[[record]]
sequence_record = "GGUGUAAGAACUUCAAGUUTT against Tlr9"
discrete_label = "fulfilled"

[[record]]
sequence_record = "GCUAAUUCCAAGAAAGAAGTT against Lifr"
discrete_label = "fulfilled"

[[record]]
sequence_record = "GCUGUAAGGAGGAACUUCUTT against Btg1"
discrete_label = "fulfilled"

[[record]]
sequence_record = "GGAUCAUCUCUUUGGGCUGTT against Tmem37"
discrete_label = "fulfilled"

[[record]]
sequence_record = "GGAACUCCAGCUUUUGGUCTT against Sox13"
discrete_label = "not fulfilled"

[[record]]
sequence_record = "GGUUGUAUUGGAUAUCAAGTT against Ceacam2"
discrete_label = "fulfilled"

[[record]]
sequence_record = "GGCAGUUAGUAAGUUUAAATT against Eif5a2"
discrete_label = "not fulfilled"

[[record]]
sequence_record = "GGUUCUACAGAUGUUUUCUTT against Tnfrsf22"
discrete_label = "not fulfilled"

[[record]]
sequence_record = "GGCCUCCUAUAGACGGGAUTT against Vdac3"
discrete_label = "not fulfilled"

[[record]]
sequence_record = "GGAGAGGCAUCUUUUCCUATT against Arhgap20"
discrete_label = "fulfilled"

[[record]]
sequence_record = "GGCCUUCCAUACUACAACUTT against Zfp595"
discrete_label = "not fulfilled"

